Tested on: Streptococcus pneumoniae
assay.protocol: Antibacterial activity against Streptococcus pneumoniae ATCC 6301
Assay type: functional
# MIC per record follows
readout: MIC (µg/mL)

INSERT INTO measurements (query_smiles, measured_on, readout, censoring_operator, assay_result) VALUES
  ('CN[C@H](CC(C)C)C(=O)N[C@H]1C(=O)N[C@@H](CC(N)=O)C(=O)N[C@H]2C(=O)N[C@H]3C(=O)N[C@H](C(=O)N[C@H](C(=O)O)c4cc(O)cc(O)c4-c4cc3ccc4O)[C@H](O)c3ccc(c(Cl)c3)Oc3cc2cc(c3O[C@@H]2O[C@H](CO)[C@@H](O)[C@H](O)[C@H]2O[C@H]2C[C@](C)(N)[C@H](O)[C@H](C)O2)Oc2ccc(cc2Cl)[C@H]1O', 'Streptococcus pneumoniae', 'MIC', '=', 1),
  ('CCN1CCN(C(=N)c2ccc3[nH]c(-c4ccc(Oc5ccc(-c6nc7cc(C(=N)N8CCN(CC)CC8)ccc7[nH]6)cc5)cc4)nc3c2)CC1', 'Streptococcus pneumoniae', 'MIC', '=', 0.5),
  ('N=C(c1ccc2[nH]c(-c3ccc(Oc4ccc(-c5nc6cc(C(=N)N7CCCCCC7)ccc6[nH]5)cc4)cc3)nc2c1)N1CCCCCC1', 'Streptococcus pneumoniae', 'MIC', '=', 0.12),
  ('CC(C)NC(=N)c1ccc2[nH]c(-c3ccc(Oc4ccc(-c5nc6cc(C(=N)NC(C)C)ccc6[nH]5)c(Cl)c4)cc3)nc2c1', 'Streptococcus pneumoniae', 'MIC', '≤', 0.06);

---

Test system: Bacillus cereus
assay.protocol: Antibacterial activity against Bacillus cereus ATCC 11778
Format: functional
readout: MIC

INSERT INTO assay_data (compound, readout, assay_result) VALUES
  ('CC(C)NC(=N)c1ccc2[nH]c(-c3ccc(Oc4ccc(-c5nc6cc(C(=N)NC(C)C)ccc6[nH]5)cc4)cc3)nc2c1', 'MIC', '< 0.06 mg/L'),
  ('CCC(C)NC(=N)c1ccc2[nH]c(-c3ccc(Oc4ccc(-c5nc6cc(C(=N)NC(C)CC)ccc6[nH]5)cc4)cc3)nc2c1 (centres undefined)', 'MIC', '< 0.06 mg/L'),
  ('O=C(O)c1cn(C2CC2)c2cc(N3CCNCC3)c(F)cc2c1=O', 'MIC', '≤ 0.12 mg/L'),
  ('CC(C)NC(=N)c1ccc2[nH]c(-c3ccc(Oc4ccc(-c5nc6cc(C(=N)NC(C)C)ccc6[nH]5)c(Cl)c4)cc3)nc2c1', 'MIC', '0.12 mg/L');

---

System: Bacillus cereus
assay.protocol: Antibacterial activity against Bacillus cereus ATCC 11778
Assay type: functional
readout: MIC (µg/mL)

INSERT INTO assay_data (molecule, readout, censoring_operator, assay_result) VALUES
  ('CC(C)NC(=N)c1ccc2cc(-c3ccc(Oc4ccc(-c5cc6ccc(C(=N)NC(C)C)cc6[nH]5)cc4)cc3)[nH]c2c1', 'MIC', '≤', 0.06),
  ('N=C(c1ccc2[nH]c(-c3ccc(Oc4ccc(-c5nc6cc(C(=N)N7CCCCC7)ccc6[nH]5)cc4)cc3)nc2c1)N1CCCCC1', 'MIC', '=', 0.25),
  ('CC(C)NC(=N)c1ccc2[nH]c(-c3ccc(Oc4ccc(-c5nc6cc(C(=N)NC(C)C)ccc6[nH]5)nc4)cc3)nc2c1', 'MIC', '=', 0.12),
  ('COc1cc(Oc2ccc(-c3nc4cc(C(=N)NC(C)C)ccc4[nH]3)cc2)ccc1-c1nc2cc(C(=N)NC(C)C)ccc2[nH]1', 'MIC', '=', 0.12),
  ('CC(C)NC(=N)c1ccc2[nH]c(-c3ccc(Oc4ccc(-c5nc6cc(C(=N)NC(C)C)ccc6[nH]5)cc4Cl)cc3)nc2c1', 'MIC', '=', 0.12),
  ('CCN1CCN(C(=N)c2ccc3[nH]c(-c4ccc(Oc5ccc(-c6nc7cc(C(=N)N8CCN(CC)CC8)ccc7[nH]6)cc5)cc4)nc3c2)CC1', 'MIC', '=', 0.5),
  ('CC(C)NC(=N)c1ccc2[nH]c(-c3ccc(Oc4ccc(-c5nc6cc(C(=N)NC(C)C)ccc6[nH]5)cn4)cc3)nc2c1', 'MIC', '=', 0.12),
  ('N=C(NC1CCCC1)c1ccc2[nH]c(-c3ccc(Oc4ccc(-c5nc6cc(C(=N)NC7CCCC7)ccc6[nH]5)cc4)cc3)nc2c1', 'MIC', '<', 0.06),
  ('N=C(c1ccc2[nH]c(-c3ccc(Oc4ccc(-c5nc6cc(C(=N)N7CCC(N8CCCC8)CC7)ccc6[nH]5)cc4)cc3)nc2c1)N1CCC(N2CCCC2)CC1', 'MIC', '=', 1),
  ('COc1cc(Oc2ccc(-c3nc4cc(C(=N)NC(C)C)ccc4[nH]3)c(Cl)c2)ccc1-c1nc2cc(C(=N)NC(C)C)ccc2[nH]1', 'MIC', '=', 0.12),
  ('N=C(c1ccc2[nH]c(-c3ccc(Oc4ccc(-c5nc6cc(C(=N)N7CCOCC7)ccc6[nH]5)cc4)cc3)nc2c1)N1CCOCC1', 'MIC', '=', 0.12),
  ('CC1(C)S[C@@H]2[C@H](NC(=O)Cc3ccccc3)C(=O)N2[C@H]1C(=O)O', 'MIC', '>', 4),
  ('CCC(CC)NC(=N)c1ccc2[nH]c(-c3ccc(Oc4ccc(-c5nc6cc(C(=N)NC(CC)CC)ccc6[nH]5)cc4)cc3)nc2c1', 'MIC', '=', 0.5),
  ('N=C(c1ccc2[nH]c(-c3ccc(Oc4ccc(-c5nc6cc(C(=N)N7CCCC7)ccc6[nH]5)cc4)cc3)nc2c1)N1CCCC1', 'MIC', '=', 0.12),
  ('CC1CCN(C(=N)c2ccc3[nH]c(-c4ccc(Oc5ccc(-c6nc7cc(C(=N)N8CCC(C)CC8)ccc7[nH]6)cc5)cc4)nc3c2)CC1', 'MIC', '<', 0.06),
  ('N=C(c1ccc2[nH]c(-c3ccc(Oc4ccc(-c5nc6cc(C(=N)N7CCSCC7)ccc6[nH]5)cc4)cc3)nc2c1)N1CCSCC1', 'MIC', '=', 0.5),
  ('CC(C)NC(=N)c1ccc2[nH]c(-c3ccc(Oc4ccc(-c5nc6cc(C(=N)NC(C)C)ccc6[nH]5)c(C(F)(F)F)c4)cc3)nc2c1', 'MIC', '=', 0.12),
  ('N=C(c1ccc2[nH]c(-c3ccc(Oc4ccc(-c5nc6cc(C(=N)N7CCCCCC7)ccc6[nH]5)cc4)cc3)nc2c1)N1CCCCCC1', 'MIC', '=', 0.5),
  ('CC1CC(C)CN(C(=N)c2ccc3[nH]c(-c4ccc(Oc5ccc(-c6nc7cc(C(=N)N8CC(C)CC(C)C8)ccc7[nH]6)cc5)cc4)nc3c2)C1 (stereo not given)', 'MIC', '=', 1),
  ('CN[C@H](CC(C)C)C(=O)N[C@H]1C(=O)N[C@@H](CC(N)=O)C(=O)N[C@H]2C(=O)N[C@H]3C(=O)N[C@H](C(=O)N[C@H](C(=O)O)c4cc(O)cc(O)c4-c4cc3ccc4O)[C@H](O)c3ccc(c(Cl)c3)Oc3cc2cc(c3O[C@@H]2O[C@H](CO)[C@@H](O)[C@H](O)[C@H]2O[C@H]2C[C@](C)(N)[C@H](O)[C@H](C)O2)Oc2ccc(cc2Cl)[C@H]1O', 'MIC', '≤', 1);
